- target.system: HCV-NS5b (Hepatitis C virus genotype 1b, UniProt Q9WMX2)
- Construct: The cloned fragment was missing the C terminus 21 amino acid residues; (His)6 (C); made in house; host or cells: XL-1 cells (E. coli)
- assay.remarks: HCV-NS5b Enzyme Assay
- Type: biochemical
- experimental.setup: 1 μM test compound; incorporation of [3H]-UTP, 37° C., 2 hours
- Protocol: The coding sequence of NS5b protein was cloned by PCR from pFKI389luc/NS3-3′/ET as described by Lohmann, V., et al. (1999) Science 285, 110-113 using the following primers: • […] (SEQ. ID. NO. 1) • […] (SEQ. ID. NO. 2) […] The polymerase activity was assayed by measuring incorporation of radiolabeled UTP into a RNA product using a biotinylated, heteropolymeric template, which includes a portion of the HCV genome. […] Incorporation of radioactivity was determined by scintillation counting (cpm). […]
Please provide measured inhibition at 1 µM for the entries that follow.
One number for each entry, in %.

Cc1nc(C)c(-c2ccc3cc(-c4c(C5CCCCC5)c5ccc(C(=O)O)cc5n4CC(=O)N4CCC(N5CCCC5)CC4)ccc3n2)s1    92.1
O=C(O)c1ccc2c(C3CCCCC3)c(-c3ccc(-c4cccnc4F)cc3)n(CC(=O)N3CCOCC3)c2c1    98
COc1ccc(F)c(-c2ccc3cc(-c4c(C5CCCCC5)c5ccc(C(=O)O)cc5n4CC(=O)N4CCOCC4)ccc3n2)c1    95

Provide inhibition at 1 µM values for the following items, in order.
1. Cc1nc(C)c(-c2ccc3cc(-c4c(C5CCCCC5)c5ccc(C(=O)O)cc5n4CC(=O)N4CCC(N(C)C)CC4)ccc3n2)s1
2. Cc1nc(C)c(-c2ccc3cc(-c4c(C5CCCCC5)c5ccc(C(=O)NCCC#N)cc5n4CC(=O)N4CCOCC4)ccc3n2)s1
3. Cc1ccc(-c2ccc3cc(-c4c(C5CCCCC5)c5ccc(C(=O)O)cc5n4CC(=O)N4CCOCC4)ccc3n2)s1

Result:
96
63.6
95.5

====

- target.system: HCV-NS5b (Hepatitis C virus genotype 1b)
- Construct: The cloned fragment was missing the C terminus 21 amino acid residues; (His)6 (C); made in house; host or cells: XL-1 cells (E. coli)
- assay.remarks: HCV-NS5b Enzyme Assay
- Assay type: biochemical
- experimental.setup: 1 μM test compound; incorporation of [3H]-UTP, 37° C., 2 hours
- Experimental: The coding sequence of NS5b protein was cloned by PCR from pFKI389luc/NS3-3′/ET as described by Lohmann, V., et al. (1999) Science 285, 110-113 using the following primers: • […] (SEQ. ID. NO. 1) • […] (SEQ. ID. NO. 2) […] The polymerase activity was assayed by measuring incorporation of radiolabeled UTP into a RNA product using a biotinylated, heteropolymeric template, which includes a portion of the HCV genome. […] Incorporation of radioactivity was determined by scintillation counting (cpm). […]
Task for the reader: assign each of the following compounds its reported inhibition at 1 µM.
Answers are plain numbers, in %.

Worked examples, 5 compounds total:
Cc1ccc(-c2ccc(-c3c(C4CCCCC4)c4ccc(C(=O)O)cc4n3CC(=O)N3CCOCC3)cc2)s1    101
COc1cccc(-c2ccc3cc(-c4c(C5CCCCC5)c5ccc(C(=O)O)cc5n4CC(=O)N4CCOCC4)ccc3n2)c1    99.6
O=C(O)c1ccc2c(C3CCCCC3)c(-c3ccc4nc(-c5cccc(F)c5)ccc4c3)n(CC(=O)N3CCOCC3)c2c1    97.1
O=C(O)c1ccc2c(C3CCCCC3)c(-c3ccc4nc(-c5ccccc5F)ccc4c3)n(CC(=O)N3CCOCC3)c2c1    97.4
COc1ccccc1-c1ccc(-c2c(C3CCCCC3)c3ccc(C(=O)O)cc3n2CC(=O)N2CCOCC2)cc1    102

Please state, for each entry, its recorded inhibition at 1 µM.
1. Cc1cccc(-c2ccc(-c3c(C4CCCCC4)c4ccc(C(=O)O)cc4n3CC(=O)N3CCOCC3)cc2)c1
2. COc1ccc(-c2ccc(Cl)cc2)c(-c2ccc3cc(-c4c(C5CCCCC5)c5ccc(C(=O)O)cc5n4CC(=O)N4CCNCC4)ccc3n2)c1

Result:
1. 99.5
2. 95.9

====

- target.system: HCV-NS5b (Hepatitis C virus genotype 1b, UniProt Q9WMX2)
- Construct: The cloned fragment was missing the C terminus 21 amino acid residues; (His)6 (C); made in house; host or cells: XL-1 cells (E. coli)
- assay.remarks: HCV-NS5b Enzyme Assay
- Format: biochemical
- experimental.setup: 1 μM test compound; incorporation of [3H]-UTP, 37° C., 2 hours
Record form. Attribute: inhibition at 1 µM. Fill in for each entry.
Give bare numbers, in %.

O=C(O)c1ccc2c(C3CCCCC3)c(-c3ccc4nc(-c5ccc(F)cc5)ccc4c3)n(CC(=O)N3CCOCC3)c2c1    96.3

Consider the following items and state reported inhibition at 1 µM for each.
1. Cc1nc(C)c(-c2ccc3cc(-c4c(C5CCCCC5)c5ccc(C(=O)NS(C)(=O)=O)cc5n4CC(=O)N4CCOCC4)ccc3n2)s1
2. Cc1nc(C)c(-c2ccc3cc(-c4c(C5CCCCC5)c5ccc(C(=O)O)cc5n4Cc4ccccc4)ccc3n2)s1
3. O=C(O)c1ccc2c(C3CCCCC3)c(-c3ccc4nc(-c5cccc(C(F)(F)F)c5)ccc4c3)n(CC(=O)N3CCOCC3)c2c1
4. Cc1nc(C)c(-c2ccc3cc(-c4c(C5CCCCC5)c5ccc(C(=O)O)cc5n4CCN4CCOCC4)ccc3n2)s1
5. Cc1nc(C)c(-c2ccc3cc(-c4c(C5CCCCC5)c5ccc(C(=O)O)cc5n4Cc4ccncc4)ccc3n2)s1
6. Cc1nc(C)c(-c2ccc3cc(-c4c(C5CCCCC5)c5ccc(C(=O)O)cc5n4CC(=O)N4CCOCC4)ccc3n2)o1

Result:
[97.7, 95.2, 98.4, 79.1, 95.7, 96]

====

- target.system: HCV-NS5b (Hepatitis C virus genotype 1b, UniProt Q9WMX2)
- Construct: The cloned fragment was missing the C terminus 21 amino acid residues; (His)6 (C); made in house; host or cells: XL-1 cells (E. coli)
- assay.remarks: HCV-NS5b Enzyme Assay
- Assay type: biochemical
- experimental.setup: 1 μM test compound; incorporation of [3H]-UTP, 37° C., 2 hours
- Protocol: The coding sequence of NS5b protein was cloned by PCR from pFKI389luc/NS3-3′/ET as described by Lohmann, V., et al. (1999) Science 285, 110-113 using the following primers: • […] (SEQ. ID. NO. 1) • […] (SEQ. ID. NO. 2) […] The polymerase activity was assayed by measuring incorporation of radiolabeled UTP into a RNA product using a biotinylated, heteropolymeric template, which includes a portion of the HCV genome. […] Incorporation of radioactivity was determined by scintillation counting (cpm). […]
Please go through the items and note down their inhibition at 1 µM.
One number for each entry, in %.

For each entry beneath this line, provide reported inhibition at 1 µM.
1. C=Cc1ccc(-c2ccc(-c3c(C4CCCCC4)c4ccc(C(=O)O)cc4n3CC(=O)N3CCOCC3)cc2)cc1
2. Cc1nc(C)c(-c2ccc3cc(-c4c(C5CCCCC5)c5ccc(C(=O)O)cc5n4CC(=O)N4C(C)COCC4C)ccc3n2)s1 (centres unmarked)
3. Cc1csc(-c2ccc3cc(-c4c(C5CCCCC5)c5ccc(C(=O)O)cc5n4CC(=O)N4CCOCC4)ccc3n2)c1
4. COC(=O)c1ccc2c(C3CCCCC3)c(-c3ccc4nc(-c5cc(OC)ccc5-c5ccc(Cl)cc5)ccc4c3)n(CC(=O)O)c2c1
5. Cc1nc(C)c(-c2ccc3cc(-c4c(C5CCCCC5)c5ccc(C(=O)O)cc5n4Cc4ccc(C(=O)O)cc4)ccc3n2)s1
6. Cn1cccc1-c1ccc2cc(-c3c(C4CCCCC4)c4ccc(C(=O)O)cc4n3CC(=O)N3CCOCC3)ccc2n1
7. Cc1nc(C(F)(F)F)sc1-c1ccc2cc(-c3c(C4CCCCC4)c4ccc(C(=O)O)cc4n3CC(=O)N3CCOCC3)ccc2n1
8. O=C(O)c1ccc2c(C3CCCCC3)c(-c3ccc4nc(-c5ccccc5Cl)ccc4c3)n(CC(=O)N3CCOCC3)c2c1

Result:
[98, 100, 97.4, 77.7, 98.7, 100, 95.2, 97.6]

Take each entry in turn and give its inhibition at 1 µM.
1. Cc1nc(C)c(-c2ccc3cc(-c4c(C5CCCCC5)c5ccc(C(=O)O)cc5n4CCCN(C)C)ccc3n2)s1
2. Cc1cc(Cn2c(-c3ccc4nc(-c5sc(C)nc5C)ccc4c3)c(C3CCCCC3)c3ccc(C(=O)O)cc32)no1
3. COc1ccc(-c2ccc3cc(-c4c(C5CCCCC5)c5ccc(C(=O)O)cc5n4CC(=O)N4CCOCC4)ccc3n2)c(OC)c1OC
4. Cc1nc(C)c(-c2nc3ccc(-c4c(C5CCCCC5)c5ccc(C(=O)O)cc5n4CC(=O)N4CCOCC4)cc3[nH]2)s1
5. O=C(O)c1ccc2c(C3CCCCC3)c(-c3ccc(-c4ccc(Cl)s4)cc3)n(CC(=O)N3CCOCC3)c2c1
6. O=C(O)c1ccc2c(C3CCCCC3)c(-c3ccc4nc(-c5c(F)cccc5F)ccc4c3)n(CC(=O)N3CCOCC3)c2c1
7. Cc1nc(C)c(-c2ccc3cc(-c4c(C5CCCCC5)c5ccc(C(=O)O)cc5n4CC(=O)N4CCC(O)CC4)ccc3n2)s1
8. O=C(O)c1ccc2c(C3CCCCC3)c(-c3ccc4nc(-c5ccccc5C(F)(F)F)ccc4c3)n(CC(=O)N3CCOCC3)c2c1

Result:
1. 85.7
2. 96.4
3. 101
4. 84.1
5. 98.1
6. 95.8
7. 92.5
8. 94.6

I need inhibition at 1 µM for every entry listed below, if you could help.
1. Cc1ccnc(-c2ccc3cc(-c4c(C5CCCCC5)c5ccc(C(=O)O)cc5n4CC(=O)N4CCOCC4)ccc3n2)c1
2. O=C(O)c1ccc2c(C3CCCCC3)c(-c3ccc4cc(-c5ccccc5)ccc4c3)n(CC(=O)N3CCOCC3)c2c1
3. Cc1nc(C)c(-c2ccc3cc(-c4c(C5CCCCC5)c5ccc(C(=O)O)cc5n4CC(=O)N(C)C)ccc3n2)s1
4. Cc1nc(C)c(-c2ccc3cc(-c4c(C5CCCCC5)c5ccc(C(=O)NCCc6nnn[nH]6)cc5n4CC(=O)N4CCOCC4)ccc3n2)s1
5. NC(=O)c1cc(-c2ccc3cc(-c4c(C5CCCCC5)c5ccc(C(=O)O)cc5n4CC(=O)O)ccc3n2)ccc1O
6. CN(C)c1ccc(-c2ccc(-c3c(C4CCCCC4)c4ccc(C(=O)O)cc4n3CC(=O)N3CCOCC3)cc2)cc1
7. Cc1nc(C)c(-c2ccc3cc(-c4[nH]c5cc(C(=O)O)ccc5c4C4CCCCC4)ccc3n2)s1
8. Cc1cc(-c2ccc3cc(-c4c(C5CCCCC5)c5ccc(C(=O)O)cc5n4CC(=O)N4CCOCC4)ccc3n2)c(C)o1

Result:
1. 99.5
2. 101
3. 96.8
4. 91.3
5. 84.5
6. 94.9
7. 95.1
8. 92.2

Your task in this section: give inhibition at 1 µM for each listed record.
1. O=C(O)c1ccc2c(C3CCCCC3)c(-c3ccc4nc(-c5ccc(C(F)(F)F)cc5)ccc4c3)n(CC(=O)N3CCOCC3)c2c1
2. Cc1cccc(-c2ccc3cc(-c4c(C5CCCCC5)c5ccc(C(=O)O)cc5n4CC(=O)N4CCOCC4)ccc3n2)c1

Result:
[94.4, 98.7]

Values were extracted from patent US20060211698A1.
